Measured polymerase ribozyme fitness (log ratio) by item
B1: TPR 5TU (parent)
chain: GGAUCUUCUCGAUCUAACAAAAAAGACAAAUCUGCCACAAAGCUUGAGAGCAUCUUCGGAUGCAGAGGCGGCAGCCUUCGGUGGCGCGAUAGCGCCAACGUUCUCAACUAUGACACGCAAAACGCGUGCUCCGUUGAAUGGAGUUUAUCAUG

variants of: B1; test: polymerase ribozyme fitness, log enrichment relative to wild type (log ratio); higher = more active; in vitro selection for triplet polymerase activity
Fewer inactive variants are shown than the library holds.
Readout Name: polymerase ribozyme fitness (log ratio)

Mutant Name: U82C
Readout Name: polymerase ribozyme fitness (log ratio)
Value Comparator: =
Meas Value: -0.0678
--
Mutant Name: C18A A19G C57A C87U C129A U135G
Readout Name: polymerase ribozyme fitness (log ratio)
Value Comparator: ≤
Meas Value: -4.2
--
Mutant Name: U31A C76U C116U U127G
Readout Name: polymerase ribozyme fitness (log ratio)
Value Comparator: ≤
Meas Value: -4.2
--
Mutant Name: C10U A24U C35U A91G C93G A98C C118U
Readout Name: polymerase ribozyme fitness (log ratio)
Value Comparator: ≤
Meas Value: -4.2
--
Mutant Name: A19U A28U A52G C105G G126C G141C U148A C149U A150C
Readout Name: polymerase ribozyme fitness (log ratio)
Value Comparator: ≤
Meas Value: -4.2
--
Mutant Name: U13A A30U U33G G46A G86A A91U A119G
Readout Name: polymerase ribozyme fitness (log ratio)
Value Comparator: ≤
Meas Value: -4.2
--
Mutant Name: A17G C85U A115U C125A U144G A150C
Readout Name: polymerase ribozyme fitness (log ratio)
Value Comparator: ≤
Meas Value: -4.2
--
Mutant Name: U6G U53C G92C U144C
Readout Name: polymerase ribozyme fitness (log ratio)
Value Comparator: =
Meas Value: -1.5
--
Mutant Name: G83U G117U
Readout Name: polymerase ribozyme fitness (log ratio)
Value Comparator: =
Meas Value: -0.498
--
Mutant Name: A26U C69G A142U
Readout Name: polymerase ribozyme fitness (log ratio)
Value Comparator: =
Meas Value: -2.62
--
Mutant Name: C87A A106U
Readout Name: polymerase ribozyme fitness (log ratio)
Value Comparator: =
Meas Value: -4.18
--
Mutant Name: G70A A91U C123U A138C C149U
Readout Name: polymerase ribozyme fitness (log ratio)
Value Comparator: ≤
Meas Value: -4.2
--
Mutant Name: C5A G86C G92U
Readout Name: polymerase ribozyme fitness (log ratio)
Value Comparator: =
Meas Value: -3.93
--
Mutant Name: C5U U45A G50U G86C C96U
Readout Name: polymerase ribozyme fitness (log ratio)
Value Comparator: ≤
Meas Value: -4.2
--
Mutant Name: A26U C72G G81A G86C
Readout Name: polymerase ribozyme fitness (log ratio)
Value Comparator: ≤
Meas Value: -4.2
--
Mutant Name: A16U G50A A60C G83C G141C
Readout Name: polymerase ribozyme fitness (log ratio)
Value Comparator: ≤
Meas Value: -4.2
--
Mutant Name: U9G G46C C76A C85G U90G A121U
Readout Name: polymerase ribozyme fitness (log ratio)
Value Comparator: ≤
Meas Value: -4.2
--
Mutant Name: G83A U102C C103G U145G
Readout Name: polymerase ribozyme fitness (log ratio)
Value Comparator: ≤
Meas Value: -4.2
--
Mutant Name: A24C A37C C38U G59A C95A A107C C116U
Readout Name: polymerase ribozyme fitness (log ratio)
Value Comparator: ≤
Meas Value: -4.2
--
Mutant Name: U56G G84A
Readout Name: polymerase ribozyme fitness (log ratio)
Value Comparator: =
Meas Value: -3.48
--
Mutant Name: C57A C93G
Readout Name: polymerase ribozyme fitness (log ratio)
Value Comparator: =
Meas Value: -3.05
--
Mutant Name: A137G U144A
Readout Name: polymerase ribozyme fitness (log ratio)
Value Comparator: =
Meas Value: -3.01
